This collection of values is drawn from PubChem BioAssay AID180.

system: BDF1 mice, Adenocarcinoma 755 s.c., tumor weight T/C; test: NCI In Vivo Anticancer Drug Screen. Data for tumor model Adenocarcinoma 755 (subcutaneous) in B6D2F1 (BDF1) mice; conditions: endpoint: mean tumor weight; dose: 450.0 mg/kg/injection; schedule: Q01DX011 (ip); vehicle: carboxymethylcellulose (CMC); higher = larger tumour
Would you mind telling me the reported T/C of each entry?

Known results for molecules:
# Sample Smiles, T/C
measured = [
    ("CS(=O)(=O)OCCC(=O)NCCCCNC(=O)CCOS(C)(=O)=O", "7 % of control"),
    ("NS(=O)(=O)c1ncc2[nH]cnc2n1", "82 % of control"),
    ("Oc1ccc2ccccc2c1N=Nc1ccc(F)cc1", "17 % of control"),
]

Read off the recorded T/C for CC(=O)OCCOc1ccc(C(C)(C)C)cc1
107 % of control

###

system: BDF1 mice, Adenocarcinoma 755 s.c., tumor weight T/C; assay: NCI In Vivo Anticancer Drug Screen. Data for tumor model Adenocarcinoma 755 (subcutaneous) in B6D2F1 (BDF1) mice; conditions: endpoint: mean tumor weight; dose: 400.0 mg/kg/injection; schedule: Q01DX011 (ip); vehicle: other; higher = larger tumour
Reported Metric: T/C

# Molecule, T/C
measured = [
    ("O=C1NC(=O)C(c2ccc(Cl)cc2)(c2ccccc2Cl)N1 (centres undefined)", "71 % of control"),
    ("NCC(N)=O", "56 % of control"),
    ("O=[N+]([O-])c1ccc(Oc2cc(Cl)c(Cl)cc2Cl)c([N+](=O)[O-])c1", "54 % of control"),
]

Next:
Answer with T/C of Cc1n[nH]c(=O)[nH]c1=O measured for BDF1 mice, Adenocarcinoma 755 s.c., tumor weight T/C.
59 % of control

###

Record form. Attribute: T/C. Fill in for each entry.
Test system: BDF1 mice, Adenocarcinoma 755 s.c., tumor weight T/C
Assay: NCI In Vivo Anticancer Drug Screen. Data for tumor model Adenocarcinoma 755 (subcutaneous) in B6D2F1 (BDF1) mice
Conditions: endpoint: mean tumor weight; dose: 200.0 mg/kg/injection; schedule: Q01DX011 (ip); vehicle: other; higher = larger tumour
Experimental: The antitumor activity of compounds was measured in mice bearing transplantable tumors. Survival or tumor size were measured and the results are expressed as the measurement made in the treated group (T) divided by the measurement made in the vehicle treated control group (C). The tumor model used in this assay is Adenocarcinoma 755 (subcutaneous) in B6D2F1 (BDF1) mice

Answered cases to consult:
# Compound, T/C
measured = [
    ("O/N=C1\\CCCC\\C1=N/O", "55 % of control"),
    ("O=[N+]([O-])c1ccc(Oc2cc(Cl)c(Cl)cc2Cl)c([N+](=O)[O-])c1", "91 % of control"),
]

Could you tell me T/C for each of these compounds? They are listed below.
1. CC(=O)Nc1c(Cl)cc2c(c1Cl)Cc1cc([N+](=O)[O-])ccc1-2
2. OC1c2cc(Cl)ccc2-c2c(Cl)cc(Cl)cc21 (stereo not given)
3. Oc1ccc2ccccc2c1N=Nc1ccc(Cl)cc1

1: 26 % of control; 2: 19 % of control; 3: 25 % of control

###

test system: BDF1 mice, Adenocarcinoma 755 s.c., tumor weight T/C; experiment: NCI In Vivo Anticancer Drug Screen. Data for tumor model Adenocarcinoma 755 (subcutaneous) in B6D2F1 (BDF1) mice; conditions: endpoint: mean tumor weight; dose: 60.0 mg/kg/injection; schedule: Q01DX011 (ip); vehicle: carboxymethylcellulose (CMC); higher = larger tumour
Reported Metric: T/C

As a guide, the following entries are already answered.
# Molecule, T/C
data = [
    ("O=C(Nc1ccc(N=Nc2ccc(O)c(C(=O)O)c2)cc1)c1ccc(C(=O)Nc2ccc(N=Nc3ccc(O)c(C(=O)O)c3)cc2)cc1", "75 % of control"),
    ("Cn1c(=O)c2ncn(CC(=O)O)c2n(C)c1=O", "156 % of control"),
    ("O=c1[nH]c2cnc(Cl)nc2[nH]1", "85 % of control"),
]

Items follow; give T/C for each.
1. S=c1nc[nH]c2nc[nH]c12
2. O=C(OCC1OC(n2cnc3c(=O)[nH]cnc32)CC1OC(=O)c1ccccc1)c1ccccc1 (stereo unspecified)
3. O=c1[nH]cnc2c1ncn2C1CCCO1 (stereo unspecified)

["4 % of control", "101 % of control", "105 % of control"]
